Biological target: baculoviral GST-MLK1KD (Homo sapiens, UniProt P80192)
Construct: 1 μg/ml of baculoviral GST-MLK1KD; GST (N); host or cells: baculovirus expression system
Sequence (P80192 144-412 limits assumed): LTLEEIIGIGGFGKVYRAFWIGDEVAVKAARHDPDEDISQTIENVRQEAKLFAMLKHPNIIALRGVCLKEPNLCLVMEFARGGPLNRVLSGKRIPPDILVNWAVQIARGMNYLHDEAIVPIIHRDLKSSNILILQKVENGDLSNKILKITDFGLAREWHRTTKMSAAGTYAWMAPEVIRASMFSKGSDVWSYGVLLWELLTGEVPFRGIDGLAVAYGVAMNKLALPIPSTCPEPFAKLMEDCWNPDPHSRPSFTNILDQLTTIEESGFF
Experiment: Mixed Lineage Kinase-1 inhibition assay (Millipore Multiscreen TCA in-plate, 32P)
Assay type: biochemical
Conditions: read-out: MLK-1 Kinase % inhibition @ 1 uM
Experimental: Inhibition of Mixed Lineage Kinase-1 Activity The kinase activity of MLK1 was assessed using the Millipore Multiscreen TCA “in-plate” format as described for protein kinase C (Pitt & Lee, J. Biomol. Screening, 1: 47-51, 1996). […]
Property Name: inhibition at 1 µM (%)
Numeric only. Scale: %

Requested read-out: inhibition at 1 µM. Entry: Cc1cc(C)c(C=C2C(=O)NN=C2c2cnccn2)[nH]1 44

Requested read-out: inhibition at 1 µM. Entry: Cc1cc(C)c(C=C2C(=O)NN=C2c2cc3ccccc3o2)[nH]1 44

Requested read-out: inhibition at 1 µM. Entry: O=C1NN=C(c2nccs2)C1=Cc1c[nH]c2ccccc12 11

Requested read-out: inhibition at 1 µM. Entry: Cc1cc(C)c(C=C2C(=O)NN=C2c2nccs2)[nH]1 10

Requested read-out: inhibition at 1 µM. Entry: Cc1cc(C)c(C=C2C(=O)NN=C2c2ccsc2)[nH]1 15
